- system tested: Transcriptional enhancer factor TEF-1 (Homo sapiens) (UniProt P28347)
- Sequence (P28347 whole entry, the tested form may be a part): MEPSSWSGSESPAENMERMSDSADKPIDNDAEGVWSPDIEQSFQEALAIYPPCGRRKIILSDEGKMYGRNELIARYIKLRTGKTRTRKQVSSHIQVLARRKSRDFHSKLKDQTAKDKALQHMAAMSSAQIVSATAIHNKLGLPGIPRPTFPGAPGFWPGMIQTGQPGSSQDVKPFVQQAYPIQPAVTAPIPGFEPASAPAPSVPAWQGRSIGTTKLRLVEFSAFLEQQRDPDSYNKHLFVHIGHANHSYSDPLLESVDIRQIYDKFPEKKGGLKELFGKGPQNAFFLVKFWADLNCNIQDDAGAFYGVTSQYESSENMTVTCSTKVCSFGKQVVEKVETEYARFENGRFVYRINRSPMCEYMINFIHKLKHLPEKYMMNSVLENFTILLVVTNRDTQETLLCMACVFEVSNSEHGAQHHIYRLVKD
- test details: Induction of thermal stabilization of GST-Pre3C-tagged human TEAD1 (209 to 426 residues) extracted from Escherichia coli BL21 star (DE3) cells assessed as change in melting temperature at 100 uM incubated for 2 hrs by nano-differential scanning fluorimetric analysis
measure: ΔTm (°C)

Look over these answered cases.
structure_notation=Cc1snc2c1c1cc(C(=O)O)ccc1n2-c1ccc(C(F)(F)F)cc1 unit_label=°C observed_measurement=17
structure_notation=O=C(O)c1ccc2c(c1)c1c(ncn1-c1ccccn1)n2-c1ccc(C(F)(F)F)cc1 unit_label=°C observed_measurement=13
structure_notation=O=C(O)c1ccc2c(c1)c1c(ncn1-c1cscn1)n2-c1ccc(C(F)(F)F)cc1 unit_label=°C observed_measurement=13

A = Cn1cnc2c1c1cc(C(=O)O)ccc1n2-c1ccc(C(F)(F)F)cc1
B = Cn1ncc2c1c1cc(C(=O)O)ccc1n2-c1ccc(C(F)(F)F)cc1
In: Larger number for ΔTm: A , or B ? State the label of the item chosen.
Out: A
(A: 13 °C, B: 9 °C)

###

- Tested on: CAKI-1
- test details: Antiproliferative activity against YAP-dependent human CAKI-1 cells incubated for 4 days by CyQuant assay
- Type: functional, cell-based
- recorded conditions: CAKI-1, 96 h
measure: pIC50
FYI, pIC50 means -log10 of a concentration in mol per litre.

// sample "Cn1nc2c3cc(C(=O)N4CC[C@H](O)C4)ccc3n(-c3ccc(C(F)(F)F)cc3)c2n1" , its pIC50 was 5.30

###

- system tested: Transcriptional enhancer factor TEF-4 (Homo sapiens) (UniProt Q15562)
- Sequence (Q15562 whole entry, the tested form may be a part): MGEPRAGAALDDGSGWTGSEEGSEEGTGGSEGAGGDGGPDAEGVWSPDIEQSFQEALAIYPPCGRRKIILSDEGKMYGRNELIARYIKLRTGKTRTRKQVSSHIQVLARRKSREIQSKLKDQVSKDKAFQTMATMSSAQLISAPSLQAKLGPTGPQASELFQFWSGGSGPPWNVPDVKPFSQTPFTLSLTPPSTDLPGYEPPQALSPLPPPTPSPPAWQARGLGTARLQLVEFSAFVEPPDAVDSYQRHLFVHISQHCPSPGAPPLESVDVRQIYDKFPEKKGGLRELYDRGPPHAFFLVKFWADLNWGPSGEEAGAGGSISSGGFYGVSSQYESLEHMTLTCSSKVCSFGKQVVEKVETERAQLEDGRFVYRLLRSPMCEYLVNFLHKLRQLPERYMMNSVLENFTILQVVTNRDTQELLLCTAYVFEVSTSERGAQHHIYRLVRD
- test details: Induction of thermal stabilization of human TEAD2 (217 to 447 residues) assessed as change in melting temperature at 100 uM incubated for 2 hrs by nano-differential scanning fluorimetric analysis
measure: ΔTm (°C)

Look over these answered cases.
structure_notation=Cn1ncc2c1c1cc(C(=O)O)ccc1n2-c1ccc(C(F)(F)F)cc1 measure=ΔTm observed_measurement=1
structure_notation=Cn1cnc2c1c1cc(C(=O)O)ccc1n2-c1ccc(C(F)(F)F)cc1 measure=ΔTm observed_measurement=7

A = O=C(O)c1ccc2c(c1)c1c(ncn1-c1ccccn1)n2-c1ccc(C(F)(F)F)cc1
B = O=C(O)c1ccc2c(c1)c1c(ncn1-c1cscn1)n2-c1ccc(C(F)(F)F)cc1
In: Larger number for ΔTm: A , or B ? State the label of the item chosen.
Out: A
(A: 6 °C, B: 4 °C)

###

- test details: Inhibition of TEAD(unknown origin)/YAP protein-protein interaction transfected in human SK-HEP1 cells incubated for 24 hrs by NanoLuc luciferase reporter assay
- Format: cell-based
measure: IC50 (nM)

1 = Cn1nc2c3cc(C(=O)N[C@H](CO)c4ccccn4)ccc3n(-c3ccc(C(F)(F)F)cc3)c2n1
2 = Cn1nc2c3cc(C(N)=O)ccc3n(-c3ccc(C(F)(F)F)cc3)c2n1
3 = Cn1cc2c3cc(C(=O)O)ccc3n(-c3ccc(C(F)(F)F)cc3)c2n1
4 = Cc1snc2c1c1cc(C(N)=O)ccc1n2-c1ccc(C(F)(F)F)cc1
5 = Cn1cnc2c1c1cc(C(=O)O)ccc1n2-c1ccc(C(F)(F)F)cc1
In: // rank above by IC50: first = highest number Arrange the labels as the request states and list them.
Out: 1, 4, 2, 5, 3

1 = Cc1snc2c1c1cc(C(=O)NCCO)ccc1n2-c1ccc(C(F)(F)F)cc1
2 = Cc1snc2c1c1cc(C(=O)O)ccc1n2-c1ccc(C(F)(F)F)cc1
In: Larger number for IC50: 1 , or 2 ? State the label of the item chosen.
Out: 1
(1: 20 nM, 2: 2 nM)

P = Cn1nc2c3cc(C(=O)N4CC[C@H](O)C4)ccc3n(-c3ccc(C(F)(F)F)cc3)c2n1
Q = CNC(=O)c1ccc2c(c1)c1c(C)snc1n2-c1ccc(C(F)(F)F)cc1
In: Larger number for IC50: P , or Q ? State the label of the item chosen.
Out: P
(P: 51 nM, Q: 22 nM)

###

- test details: Inhibition of TEAD(unknown origin)/YAP protein-protein interaction transfected in human SK-HEP1 cells incubated for 24 hrs by NanoLuc luciferase reporter assay
- Type: cell-based
measure: IC50 (nM)

structure_notation=C[C@H](CO)NC(=O)c1ccc2c(c1)c1cn(C)nc1n2-c1ccc(C(F)(F)F)cc1 measure=IC50 observed_measurement=31

I = C[C@H](CO)NC(=O)c1ccc2c(c1)c1nn(C)nc1n2-c1ccc(C(F)(F)F)cc1
II = Cn1ncc2c1c1cc(C(=O)O)ccc1n2-c1ccc(C(F)(F)F)cc1
III = Cc1snc2c1c1cc(C(=O)N3CC[C@H](O)C3)ccc1n2-c1ccc(C(F)(F)F)cc1
In: Your job: order these 3 records by IC50, ascending. Arrange the labels as the request states and list them.
Out: I, II, III
(I: 27 nM, II: 63 nM, III: 130 nM)
